These entries and their values trace back to patent US20140023641A1.

Molecular target: human GM-CSF I117 isoform (human, UniProt P04141 18-144)
Sequence (P04141 18-144 limits assumed): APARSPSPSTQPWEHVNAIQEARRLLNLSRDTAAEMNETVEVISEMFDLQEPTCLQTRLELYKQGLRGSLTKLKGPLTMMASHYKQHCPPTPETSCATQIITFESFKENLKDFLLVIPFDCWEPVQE
Test: cell-based or functional assay
READOUT: Fold improvement of humanized parental 4K21 on I117 (TF-1 proliferation IC50) (fold)
Form entry: value (fold) — number only.

{"BINDER": "humanized parental anti-GM-CSF 4K21 VH3-07.1AL+VK2-A3.2 hIgG1 K antibody (MSB0010439) (antibody, V domains shown, hIgG1 kappa; also called humanized parental 4K21 hVH hVL; humanized parental 4K21) VH: EVQLVESGGGLVQPGGSLRLSCAASGFAFSAYDMSWVRQAPGKRLELVAYISSGGSSFYYPDTVKGRFTISRDNAKNSLYLQMNSLRAEDTAVYYCTRHLGFDYWGQGTLVTVSS VL: DIVMTQSPLSLPVTPGEPASISCRSSQSLVNSNGNTYLHWYLQKPGQSPQLLIYKVSNRFSGVPDRFSGSGSGTDFTLKISRVEAEDVGVYYCSQSTHVPPTFGQGTKVEIK", "MEAS_VALUE": 1}
{"BINDER": "anti-GM-CSF 4K21 hIgG1 K antibody (MSB0010259), recombinant chimeric 4K21 (antibody, V domains shown, Murine variable domains fused to human constant IgG1 heavy chain and kappa light chain domains; also called parental chimeric 4K21) VH: EVQLVESGGGLVKSGGSLKLSCAASGFAFSAYDMSWVRQTPEKRLELVAYISSGGSSFYYPDTVKGRFTISRDNAKNTLYLQMSSLKSEDTAMYYCTRHLGFDYWGQGTTLTVSS VL: DVVMTQTPLSLPVSLGDQASISCRSSQSLVNSNGNTYLHWFLQKPGQSPKLLIYKVSNRFSGVPDRFSGSGSGTDFTLKISRVEAEDLGVYFCSQSTHVPPTFGGGTKLEIK", "MEAS_VALUE": 0.9}
{"BINDER": "4K21 hVH S55K-T62S hVL S27eY-N28I-H34S-N53R-H93F (MSB0010629) (antibody, V domains shown, Tested as IgG ('optimized 4K21 IgGs'); the humanized parent is hIgG1 kappa; also called optimized 4K21 antibody with S27eY; 4K21 (4K21 VH S55K-T62S VL S27eY-N28I-H34S-N53R-H93F)) VH: EVQLVESGGGLVQPGGSLRLSCAASGFAFSAYDMSWVRQAPGKRLELVAYISSGGKSFYYPDSVKGRFTISRDNAKNSLYLQMNSLRAEDTAVYYCTRHLGFDYWGQGTLVTVSS VL: DIVMTQSPLSLPVTPGEPASISCRSSQSLVNYIGNTYLSWYLQKPGQSPQLLIYKVSRRFSGVPDRFSGSGSGTDFTLKISRVEAEDVGVYYCSQSTFVPPTFGQGTKVEIK", "MEAS_VALUE": 4.4}

Moving on to another binder below.
Qu. Could you share which Fold improvement of humanized parental 4K21 on I117 (TF-1 proliferation IC50) value was measured for 4K21 hVH S55K-T62S hVL N28I-H34S-N53R-H93F (MSB0010628) (antibody, V domains shown, Tested as IgG ('optimized 4K21 IgGs'); the humanized parent is hIgG1 kappa; also called optimized 4K21 antibody; 4K21 (4K21 VH S55K-T62S VL N28I-H34S-N53R-H93F)) VH: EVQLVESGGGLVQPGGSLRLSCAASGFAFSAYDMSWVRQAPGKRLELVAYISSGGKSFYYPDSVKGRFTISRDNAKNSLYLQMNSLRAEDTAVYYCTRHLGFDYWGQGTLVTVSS VL: DIVMTQSPLSLPVTPGEPASISCRSSQSLVNSIGNTYLSWYLQKPGQSPQLLIYKVSRRFSGVPDRFSGSGSGTDFTLKISRVEAEDVGVYYCSQSTFVPPTFGQGTKVEIK ?
Ans. 6.6
